Assign log10 of IC50 to each entry below.
# target of assay: UniProt:P56817
# Sequence (P56817 46-501): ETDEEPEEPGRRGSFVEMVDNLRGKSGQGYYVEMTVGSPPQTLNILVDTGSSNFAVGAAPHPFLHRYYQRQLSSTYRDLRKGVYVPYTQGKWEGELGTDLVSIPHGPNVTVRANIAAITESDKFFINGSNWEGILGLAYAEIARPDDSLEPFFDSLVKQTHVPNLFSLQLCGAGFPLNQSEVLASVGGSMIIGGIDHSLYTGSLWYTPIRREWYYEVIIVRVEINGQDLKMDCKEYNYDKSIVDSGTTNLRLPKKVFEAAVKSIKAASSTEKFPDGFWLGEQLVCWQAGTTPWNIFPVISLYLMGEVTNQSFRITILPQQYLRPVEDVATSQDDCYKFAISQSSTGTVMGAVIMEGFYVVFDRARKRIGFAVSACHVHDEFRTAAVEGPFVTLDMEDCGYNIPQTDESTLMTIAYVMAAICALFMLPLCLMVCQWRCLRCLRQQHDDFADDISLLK
# protocol notes: Inhibition of BACE cleavage of a P5-P5′ fluorescent peptide substrate containing the Swedish mutation cleavage site
# measurement setup: fluorogenic P5-P5′ BACE-1 substrate; 30 minutes preincubation at room temperature; signal read every 30 minutes at 25° C. for 2 hr
Give log10 of IC50, with IC50 taken in nM.

Ask | Any idea what its log10 of IC50 is? The compound is CN1C(=O)C(c2ccc(C(F)F)nc2)(c2cccc(-c3cncnc3)c2)N=C1N (centres unmarked) [Compound 6]
Reply | 2.97

Ask | Any idea what its log10 of IC50 is? The compound is Cc1cc(C2(c3ccnc(C(F)(F)F)c3)N=C(N)N(C)C2=O)ccc1OC(F)F (centres unmarked) [Compound 3]
Reply | 3.99

Ask | Any idea what its log10 of IC50 is? The compound is CN1C(=O)C(c2cccc(-c3cncnc3)c2)(c2cccc(C(F)F)c2)N=C1N (centres unmarked) [Compound 8]
Reply | 2.23

Ask | Any idea what its log10 of IC50 is? The compound is CN1C(=O)C(c2cccc(-c3cncnc3)c2)(c2ccnc(C(F)F)c2)N=C1N (centres unmarked) [Compound 1]
Reply | 1.48

Ask | Any idea what its log10 of IC50 is? The compound is CN1C(=O)C(c2ccc(C(F)(F)F)nc2)(c2cccc(-c3cncnc3)c2)N=C1N (centres unmarked) [Compound 4]
Reply | 2.99

Ask | Any idea what its log10 of IC50 is? The compound is CN1C(=O)C(c2cccc(-c3cncnc3)c2)(c2cccc(C(F)F)n2)N=C1N (centres unmarked) [Compound 7]
Reply | 2.70

Ask | Any idea what its log10 of IC50 is? The compound is CN1C(=O)C(c2cccc(-c3cncnc3)c2)(c2cccc(C(F)(F)F)n2)N=C1N (centres unmarked) [Compound 5]
Reply | 3.90

Ask | Any idea what its log10 of IC50 is? The compound is CN1C(=O)C(c2cccc(-c3cncnc3)c2)(c2ccnc(C(F)(F)F)c2)N=C1N (centres unmarked) [Compound 2]
Reply | 1.85
